MEASUREMENT_TARGET: FRMPD4, Q14CM0
Sequence (Q14CM0 67-160): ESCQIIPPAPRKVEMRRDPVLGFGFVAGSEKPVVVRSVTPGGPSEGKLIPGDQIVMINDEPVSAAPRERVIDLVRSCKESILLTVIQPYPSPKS
PROTOCOL_DETAILS: holdup assay
Design: key: below the threshold = too weak to quantify, mostly under pKd 3.1 to 4
DETAILS: plain residues with an end cap or a label only (N-terminal biotin on a linker: ado-ado)
RECORDED_ENDPOINT: pKd

Some solved cases for reference:
BINDER: NTLNRKTTPV [CACNG8, Q8WXS5]
pKd: below the threshold
--
BINDER: MQHQRTHTRV [ZSCAN30, Q86W11]
pKd: below the threshold
--
BINDER: NNNVVKVDSV [MTNR1A, P48039]
pKd: below the threshold
--
BINDER: RDPPAEWTRV [PTPN18, Q99952]
pKd: 4.07

Tell me its pKd given DGVNEKVSCV [HTR2A, P28223] as the entry.
below the threshold

For the binder SRSVVESDEL [MYPN, Q86TC9] , give its measured pKd value.
3.72
